Biological target: T1, Rb^P R611S (human, UniProt P06400 380-788, R611S)
T1 construct: also called variant 38
T1 sequence (looked up): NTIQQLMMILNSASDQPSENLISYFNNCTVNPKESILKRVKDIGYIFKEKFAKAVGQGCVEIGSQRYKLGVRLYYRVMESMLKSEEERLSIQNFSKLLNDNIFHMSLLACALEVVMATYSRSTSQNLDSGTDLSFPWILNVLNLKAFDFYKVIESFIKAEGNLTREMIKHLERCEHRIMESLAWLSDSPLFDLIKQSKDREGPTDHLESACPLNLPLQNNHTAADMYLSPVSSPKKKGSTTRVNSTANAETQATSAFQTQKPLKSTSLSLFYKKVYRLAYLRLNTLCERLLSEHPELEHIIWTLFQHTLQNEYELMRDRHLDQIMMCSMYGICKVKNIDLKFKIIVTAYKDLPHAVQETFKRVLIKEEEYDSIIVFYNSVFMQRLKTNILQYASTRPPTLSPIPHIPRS
Experiment: fluorescence polarisation; 37 °C, after the 25 °C reading ramped over 7 min to 37 °C and 2 min incubation; unlabeled Rb^P against 1.5 nM TMR-E2F1^TD or 7.5 nM TMR-E7^LxCxE; 25 mM Tris pH 8.0, 200 mM NaCl, 1 mM DTT, 0.1% Tween-20; apparent Kd
Settings: both partners purified
No end group written: not given here. TMR = tetramethyl rhodamine dye
Exercise: state measured pKd for each of the binders provided.
# pKd = -log10(concentration in molar units)

Given the entry DLYCYEQLN (also: TMR label, position not given here, source: synthetic peptide, bought: GenScript) [TMR-E7^LxCxE, LxCxE peptide of the E7 oncoprotein from HPV] , report its measured pKd.
7.82

Any idea what its pKd is? The binder is {TMR}-GEGIRDLFDCDFGDLTPLD (also called E2F^TD; source: synthetic peptide, bought: GenScript) [TMR-E2F1^TD, peptide of the E2F1 transactivation domain]
7.52
